# System Under Test: Cannabinoid receptor 1 (Homo sapiens, UniProt P21554)
# Sequence (P21554 whole entry): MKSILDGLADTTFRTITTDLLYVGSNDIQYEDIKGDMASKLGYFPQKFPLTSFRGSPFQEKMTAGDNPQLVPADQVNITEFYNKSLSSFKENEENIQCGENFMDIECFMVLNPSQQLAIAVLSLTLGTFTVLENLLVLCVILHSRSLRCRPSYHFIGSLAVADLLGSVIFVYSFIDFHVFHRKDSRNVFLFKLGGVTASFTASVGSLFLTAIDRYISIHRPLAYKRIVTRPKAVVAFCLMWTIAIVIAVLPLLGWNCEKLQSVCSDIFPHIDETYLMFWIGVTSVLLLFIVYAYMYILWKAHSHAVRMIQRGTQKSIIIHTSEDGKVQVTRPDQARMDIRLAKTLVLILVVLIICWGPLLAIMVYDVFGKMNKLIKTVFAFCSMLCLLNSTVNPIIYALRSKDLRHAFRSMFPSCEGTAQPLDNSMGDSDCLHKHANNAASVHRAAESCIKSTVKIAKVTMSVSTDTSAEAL
# Experiment Description: Activity at human CB1 receptor by [35S]GTP-gamma-S binding stimulation assay
# Assay type: functional
compounds and their reported EC50

Examples from the recorded data:
{"Compound": "O=C(Nc1ccc(Cl)cc1)NC(c1ccc(Cl)cc1)c1ccc(Cl)cc1", "Measure Name": "EC50", "Reading": "1050 nM (inverse agonist)"}
{"Compound": "S=C(Nc1ccc(Cl)cc1)NC(c1ccc(Br)cc1)c1ccc(Br)cc1", "Measure Name": "EC50", "Reading": "1250 nM (inverse agonist)"}
{"Compound": "CCCCCCC(C)(C)c1cc(O)c2c(c1)OC(C)(C)[C@H]1CC=C(CO)C[C@H]21 [DEXANABINOL]", "Measure Name": "EC50", "Reading": "0.6 nM (inverse agonist)"}
{"Compound": "O=C(Nc1ccc(Br)cc1)NC(c1ccc(Br)cc1)c1ccc(Br)cc1", "Measure Name": "EC50", "Reading": "500 nM (inverse agonist)"}
{"Compound": "O=C(Nc1ccc(Cl)cc1)NC(c1ccc(Br)cc1)c1ccc(Br)cc1", "Measure Name": "EC50", "Reading": "450 nM (inverse agonist)"}

[in] # lookup: EC50 of O=C(Nc1ccc(Br)cc1)NC(c1ccc(Cl)cc1)c1ccc(Cl)cc1
[out] 700 nM (inverse agonist)
